MEASUREMENT_DESCRIPTION: in vivo pharmacokinetics experiment in rats (Test Example 2)
RUN_PARAMETERS: male, SD, rat, plasma, po 5 mg/kg vs iv 5 mg/kg, read-out: F % (absolute bioavailability)
ASSAY_METRIC: bioavailability (%)
Enter your answer as a number in %; do not include the unit.

According to the records, this compound CN(C)c1cc(CNC2CC(F)(F)C2)c(O)c2c1C[C@H]1C[C@H]3[C@H](N(C)C)C(O)=C(C(N)=O)C(=O)[C@@]3(O)C(O)=C1C2=O [Compound 2] displays bioavailability of 33.9

====

MEASUREMENT_DESCRIPTION: in vivo
Set-up: species or system male SD rats
RUN_PARAMETERS: male, SD, rat, po, 5 mg/kg
ASSAY_METRIC: AUC(0-inf)

According to the records, this molecule CN(C)c1cc(CN2CC3CC3C2)c(O)c2c1C[C@H]1C[C@H]3[C@H](N(C)C)C(O)=C(C(N)=O)C(=O)[C@@]3(O)C(O)=C1C2=O (stereo partly shown) displays AUC(0-inf) of 2000 ng·h/mL

====

MEASUREMENT_DESCRIPTION: in vivo
Set-up: species or system male SD rats
RUN_PARAMETERS: male, SD, rat, iv, 5 mg/kg
Kindly supply the reported clearance values for the records listed here.
Enter your answer as a number in mL/min/kg; do not include the unit.

According to the records, this compound CN(C)c1cc(CN2CC3CC3C2)c(O)c2c1C[C@H]1C[C@H]3[C@H](N(C)C)C(O)=C(C(N)=O)C(=O)[C@@]3(O)C(O)=C1C2=O (stereo partly shown) [Compound 23] displays clearance of 9.33

According to the records, this compound CN(C)c1cc(CN2CC3(CCC3)C2)c(O)c2c1C[C@H]1C[C@H]3[C@H](N(C)C)C(O)=C(C(N)=O)C(=O)[C@@]3(O)C(O)=C1C2=O [Compound 9] displays clearance of 13.3

According to the records, this compound CN(C)c1cc(CN2CCC3(CC2)CC3)c(O)c2c1C[C@H]1C[C@H]3[C@H](N(C)C)C(O)=C(C(N)=O)C(=O)[C@@]3(O)C(O)=C1C2=O [Compound 20] displays clearance of 7.33

According to the records, this compound CN(C)c1cc(NC(=O)CNC(C)(C)C)c(O)c2c1C[C@H]1C[C@H]3[C@H](N(C)C)C(O)=C(C(N)=O)C(=O)[C@@]3(O)C(O)=C1C2=O [tigecycline] displays clearance of 16.5

====

MEASUREMENT_DESCRIPTION: in vivo
Set-up: species or system male SD rats
RUN_PARAMETERS: male, SD, rat, po, 10 mg/kg
ASSAY_METRIC: bioavailability (%)
Enter your answer as a number in %; do not include the unit.

According to the records, this compound CN(C)c1cc(NC(=O)CNC(C)(C)C)c(O)c2c1C[C@H]1C[C@H]3[C@H](N(C)C)C(O)=C(C(N)=O)C(=O)[C@@]3(O)C(O)=C1C2=O [tigecycline] displays bioavailability of 1.8

====

Kindly supply the reported AUC(0-inf) values for the records listed here.
MEASUREMENT_DESCRIPTION: in vivo
Design: species or system male SD rats
RUN_PARAMETERS: male, SD, rat, iv, 5 mg/kg
Enter your answer as a number in ng·h/mL; do not include the unit.

According to the records, this molecule `CN(C)c1cc(NC(=O)CNC(C)(C)C)c(O)c2c1C[C@H]1C[C@H]3[C@H](N(C)C)C(O)=C(C(N)=O)C(=O)[C@@]3(O)C(O)=C1C2=O` displays AUC(0-inf) of 5120

According to the records, this molecule CN(C)c1cc(CN2CC3CC3C2)c(O)c2c1C[C@H]1C[C@H]3[C@H](N(C)C)C(O)=C(C(N)=O)C(=O)[C@@]3(O)C(O)=C1C2=O (some centres unmarked) displays AUC(0-inf) of 9110

====

MEASUREMENT_DESCRIPTION: in vivo
Parameters: species or system male SD rats
RUN_PARAMETERS: male, SD, rat, po, 5 mg/kg
Kindly supply the reported AUC(0-t) values for the records listed here.
# number then unit; no other words

According to the records, this molecule CN(C)c1cc(CN2CC3(CCC3)C2)c(O)c2c1C[C@H]1C[C@H]3[C@H](N(C)C)C(O)=C(C(N)=O)C(=O)[C@@]3(O)C(O)=C1C2=O [Compound 9] displays AUC(0-t) of 216 ng·h/mL

According to the records, this molecule CN(C)c1cc(CN2CCC3(CC2)CC3)c(O)c2c1C[C@H]1C[C@H]3[C@H](N(C)C)C(O)=C(C(N)=O)C(=O)[C@@]3(O)C(O)=C1C2=O [Compound 20] displays AUC(0-t) of 605 ng·h/mL

====

MEASUREMENT_DESCRIPTION: in vivo pharmacokinetics experiment in rats (Test Example 2)
RUN_PARAMETERS: male, SD, rat, plasma, iv, 5 mg/kg, read-out: Vss
Protocol: Test animals: male SD rats, weighing 230-250 g, purchased from Shanghai SLAC Laboratory Animals Co., Ltd., Certificate of Conformity: SCXK (SH) 2007-0005 22045; Six rats were tested for each compound. […] Plasma samples analysis: 30 μl of plasma was taken and added 100 μl of internal standard solution, subjected to vortex at 14,000 rev/min for 5 minutes, then to centrifugation at 12,000 rpm/min for 5 minutes. The supernatant was taken and analyzed using LC-MS/MS. […]
ASSAY_METRIC: Vd (L/kg)
Enter your answer as a number in L/kg; do not include the unit.

According to the records, this compound `CN(C)c1cc(CNC2CC(F)(F)C2)c(O)c2c1C[C@H]1C[C@H]3[C@H](N(C)C)C(O)=C(C(N)=O)C(=O)[C@@]3(O)C(O)=C1C2=O` displays Vd of 5.12

====

Tested on: Acinetobacter baumannii
MEASUREMENT_DESCRIPTION: antibacterial activity in vitro, agar dilution method
Assay type: cell-based
RUN_PARAMETERS: Table 2, agar dilution, read-out: antibacterial activity MIC, Acinetbacter baumannii
ASSAY_METRIC: MIC (µg/mL)
Enter your answer as a number in µg/mL; do not include the unit.

According to the records, this molecule CN(C)c1cc(CNC2CC(F)(F)C2)c(O)c2c1C[C@H]1C[C@H]3[C@H](N(C)C)C(O)=C(C(N)=O)C(=O)[C@@]3(O)C(O)=C1C2=O [Compound 2] displays MIC of 0.5

According to the records, this molecule CN(C)c1cc(CNC2CC3(CC3)C2)c(O)c2c1C[C@H]1C[C@H]3[C@H](N(C)C)C(O)=C(C(N)=O)C(=O)[C@@]3(O)C(O)=C1C2=O [Compound 3] displays MIC of 4

According to the records, this molecule CN(C)c1cc(CNCC2CC(F)(F)C2)c(O)c2c1C[C@H]1C[C@H]3[C@H](N(C)C)C(O)=C(C(N)=O)C(=O)[C@@]3(O)C(O)=C1C2=O [Compound 10] displays MIC of 4

According to the records, this molecule CN(C)c1cc(CNCC(C)(C)C)c(O)c2c1C[C@H]1C[C@H]3[C@H](N(C)C)C(O)=C(C(N)=O)C(=O)[C@@]3(O)C(O)=C1C2=O [PTK-0796, reference compound] displays MIC of 2

====

Kindly supply the reported MIC values for the records listed here.
System: Klebsiella oxytoca
MEASUREMENT_DESCRIPTION: antibacterial activity in vitro, agar dilution method
Type: cell-based
RUN_PARAMETERS: Table 3
Enter your answer as a number in µg/mL; do not include the unit.

According to the records, this compound CN(C)c1cc(CN2CC(F)C2)c(O)c2c1C[C@H]1C[C@H]3[C@H](N(C)C)C(O)=C(C(N)=O)C(=O)[C@@]3(O)C(O)=C1C2=O [Compound 19] displays MIC of 0.25

According to the records, this compound CN(C)c1cc(CN2CCC3(CCCC3)CC2)c(O)c2c1CC1CC3[C@H](N(C)C)C(O)=C(C(N)=O)C(=O)[C@@]3(O)C(O)=C1C2=O (stereo partly drawn) [Compound d, reference compound] displays MIC of 8

According to the records, this compound CN(C)c1cc(CN2CCC3(CC2)CC3)c(O)c2c1C[C@H]1C[C@H]3[C@H](N(C)C)C(O)=C(C(N)=O)C(=O)[C@@]3(O)C(O)=C1C2=O [Compound 20] displays MIC of 1

According to the records, this compound CN(C)c1cc(CN2CC3(CCC3)C2)c(O)c2c1C[C@H]1C[C@H]3[C@H](N(C)C)C(O)=C(C(N)=O)C(=O)[C@@]3(O)C(O)=C1C2=O [Compound 9] displays MIC of 1

According to the records, this compound CN(C)c1cc(CN2CC3(C2)CC(F)(F)C3)c(O)c2c1C[C@H]1C[C@H]3[C@H](N(C)C)C(O)=C(C(N)=O)C(=O)[C@@]3(O)C(O)=C1C2=O [Compound 16] displays MIC of 1

According to the records, this compound CN(C)c1cc(CN2CC(C)(C)C2)c(O)c2c1C[C@H]1C[C@H]3[C@H](N(C)C)C(O)=C(C(N)=O)C(=O)[C@@]3(O)C(O)=C1C2=O [Compound 1] displays MIC of 1
